# Test system: J774.1 strain, an established cell line of mouse macrophage
# experiment: Inhibitory effects on the accumulation of cholesterol esters in macrophage (Test 2)
# Format: cell-based
# measurement setup: Mus musculus, J774.1, 12 h, J774.1 mouse macrophage, 12 hours incubation with cholesterol liposomes
Label t when IC50 is strictly below 200 nM; at or above that, label f.

Answer whether the compound COc1cc(/C=C/C(=O)Nc2c(C(C)C)cccc2C(C)C)cc(OC)c1OCc1ccccc1 [Compound 68] has IC50 strictly less than 200 nM f

Answer whether the compound COc1cc(/C=C/C(=O)Nc2ccc(C)cc2)cc(OC)c1OCc1ccccc1 [Compound 71] has IC50 strictly less than 200 nM t

Answer whether the compound COc1cc(/C=C/C(=O)Nc2ccc(Oc3ccccc3)cc2)cc(OC)c1OCc1ccccc1 [Compound 85] has IC50 strictly less than 200 nM t

Answer whether the compound COc1ccc(NC(=O)/C=C/c2cc(OC)c(OCc3ccccc3)c(OC)c2)cc1 [Compound 72] has IC50 strictly less than 200 nM t

Answer whether the compound COc1cc(/C=C/C(=O)Nc2ccc(C(C)(C)C)cc2)cc(OC)c1OCc1ccccc1 [Compound 69] has IC50 strictly less than 200 nM t

Answer whether the compound COc1cc(/C=C/C(=O)NCCc2ccccc2)cc(OC)c1OCc1ccccc1 [Compound 59] has IC50 strictly less than 200 nM f

Answer whether the compound COc1cc(/C=C/C(=O)Nc2ccc(C(F)(F)F)cc2)cc(OC)c1OCc1ccccc1 [Compound 82] has IC50 strictly less than 200 nM t

Answer whether the compound COc1cc(/C=C/C(=O)Nc2ccc(Br)cc2)cc(OC)c1OCc1ccccc1 [Compound 79] has IC50 strictly less than 200 nM t

Answer whether the compound COc1cc(/C=C/C(=O)Nc2cccc(C)c2C)cc(OC)c1OCc1ccccc1 [Compound 64] has IC50 strictly less than 200 nM f

---

# System: SD rats
# experiment: Plasma cholesterol elevation inhibitory effects on rats loaded with high cholesterol diet, feed-mixed administration (Test 3)
# Type: in vivo, rat
# measurement setup: 0.005% of compound added to hyperlipemia inducing diet, ad libitum 3 days
Let's look at some compounds and their measured Inhibitory rate (%) of plasma total cholesterol elevation in rat.
The reply should contain only the number, in %.

Please review the following examples before continuing.
smiles_str=CCCCCCCCCCOc1c(OC)cc(/C=C/C(=O)Nc2ccc(Oc3ccccc3)cc2)cc1OC units=% value_observed=34
smiles_str=COc1cc(/C=C/C(=O)N2CCN(c3ccc(C)cc3C)CC2)cc(OC)c1OCCOc1ccccc1 units=% value_observed=20
smiles_str=CCCCCCCCCCOc1c(OC)cc(/C=C/C(=O)NCCOc2ccccc2)cc1OC units=% value_observed=23
smiles_str=CCCCCCCCOc1c(OC)cc(/C=C/C(=O)NN2CCN(c3ccc(C)c(C)c3)CC2)cc1OC units=% value_observed=79
smiles_str=CCCCCCCCCCCCOc1c(OC)cc(/C=C/C(=O)NN2CCN(c3ccc(C)c(C)c3)CC2)cc1OC units=% value_observed=33

Proceeding to the next compound to report its Inhibitory rate (%) of plasma total cholesterol elevation in rat.
Sample `CCCCCCCCCCCOc1c(OC)cc(/C=C/C(=O)NN2CCN(c3ccc(C)c(C)c3)CC2)cc1OC` — what was its Inhibitory rate (%) of plasma total cholesterol elevation in rat? 28

---

# System: J774.1 strain, an established cell line of mouse macrophage
# experiment: Inhibitory effects on the accumulation of cholesterol esters in macrophage (Test 2)
# Assay type: cell-based
# measurement setup: Mus musculus, J774.1, 12 h, J774.1 mouse macrophage, 12 hours incubation with cholesterol liposomes
Label MET when IC50 is strictly below 200 nM; at or above that, label NOT MET.

smiles_str=COc1cc(/C=C/C(=O)Nc2ccc(C)c(C)c2)cc(OC)c1OCc1ccccc1 group_label=MET
smiles_str=COc1cc(/C=C/C(=O)Nc2ccc(C)cc2C)cc(OC)c1OCc1ccccc1 group_label="NOT MET"
smiles_str=CCCCCCCCCCCCOc1c(OC)cc(/C=C/C(=O)NN2CCN(c3ccc(C)cc3C)CC2)cc1OC group_label="NOT MET"
smiles_str=COc1cc(/C=C/C(=O)NCCCCc2ccccc2)cc(OC)c1OCc1ccccc1 group_label="NOT MET"
smiles_str=COc1cc(/C=C/C(=O)Nc2ccccc2)cc(OC)c1OCc1ccccc1 group_label="NOT MET"
smiles_str=COc1cc(/C=C/C(=O)Nc2ccc(F)cc2)cc(OC)c1OCc1ccccc1 group_label="NOT MET"

Answer whether the compound `COc1cc(/C=C/C(=O)Nc2cc(C(F)(F)F)cc(C(F)(F)F)c2)cc(OC)c1OCc1ccccc1` has IC50 strictly less than 200 nM NOT MET

Answer whether the compound `COc1cc(/C=C/C(=O)Nc2c(C)cccc2C)cc(OC)c1OCc1ccccc1` has IC50 strictly less than 200 nM NOT MET

Answer whether the compound `COc1cc(/C=C/C(=O)Nc2ccc(Cl)cc2)cc(OC)c1OCc1ccccc1` has IC50 strictly less than 200 nM MET

Answer whether the compound `COc1cc(/C=C/C(=O)NCc2ccccc2)cc(OC)c1OCc1ccccc1` has IC50 strictly less than 200 nM NOT MET

Answer whether the compound `COc1cc(/C=C/C(=O)Nc2c(C)cc(C)cc2C)cc(OC)c1OCc1ccccc1` has IC50 strictly less than 200 nM NOT MET

Answer whether the compound `COc1cc(/C=C/C(=O)Nc2ccccc2C(C)(C)C)cc(OC)c1OCc1ccccc1` has IC50 strictly less than 200 nM NOT MET

Answer whether the compound `COc1cc(/C=C/C(=O)Nc2ccc(OC(C)C)cc2)cc(OC)c1OCc1ccccc1` has IC50 strictly less than 200 nM MET

Answer whether the compound `COc1cc(/C=C/C(=O)NCCCc2ccccc2)cc(OC)c1OCc1ccccc1` has IC50 strictly less than 200 nM NOT MET

Answer whether the compound `COc1cc(/C=C/C(=O)Nc2ccc(Cl)c(Cl)c2)cc(OC)c1OCc1ccccc1` has IC50 strictly less than 200 nM MET

Answer whether the compound `COc1cc(/C=C/C(=O)Nc2ccc(I)cc2)cc(OC)c1OCc1ccccc1` has IC50 strictly less than 200 nM MET

Origin of the recorded values: patent EP0974573A1
